B1: EHEE_rd3_0053 (parent)
chain: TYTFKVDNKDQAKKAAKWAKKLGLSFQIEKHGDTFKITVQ

Variants of: B1
Assay: folding stability dG (cDNA display proteolysis); higher = more stable
Conditions: PBS, room temperature
For each entry below, report its folding stability dG value.

Would you kindly share the measured folding stability dG for G32W ?
1.31 kcal/mol

Would you mind doing W18A as well?
1.21 kcal/mol

Would you mind doing K20C as well?
2.67 kcal/mol

Would you mind doing Q11R as well?
1.99 kcal/mol

Would you mind doing K36S as well?
2.52 kcal/mol

Would you mind doing D10E as well?
2.73 kcal/mol

Would you mind doing F35N as well?
-0.413 kcal/mol

Would you mind doing I37A as well?
0.507 kcal/mol

Would you mind doing K9S as well?
2.14 kcal/mol

Would you mind doing A19N as well?
-0.253 kcal/mol

Would you mind doing T1D as well?
1.93 kcal/mol

Would you mind doing A15T as well?
1.85 kcal/mol

Would you mind doing T3M as well?
1.99 kcal/mol

Would you mind doing D7T as well?
2.47 kcal/mol

Would you mind doing K36H as well?
2.66 kcal/mol

Would you mind doing T3A as well?
1.79 kcal/mol

Would you mind doing K5N as well?
2.79 kcal/mol

Would you mind doing K13R as well?
2.66 kcal/mol

Would you mind doing T38E as well?
1.1 kcal/mol

Would you mind doing V6I as well?
1.89 kcal/mol

Would you mind doing A15D as well?
-0.785 kcal/mol

Would you mind doing T38Y as well?
1.77 kcal/mol
